Provide the reported T/C of each item.
test system: B6C3F1 mice, ip Sarcoma M5076, median survival T/C; test: NCI In Vivo Anticancer Drug Screen. Data for tumor model Sarcoma M5076 (intraperitoneal) in B6C3F1 mice; conditions: endpoint: median survival time; dose: 62.5 mg/kg/injection; schedule: Q04DX004 (ip); vehicle: saline with Tween-80; higher = longer survival
Inconclusive results and toxic doses are left out.

# example entries with known answers
COc1ccc(-n2cc[n+](C)c2/C=N\O)cc1 : 94 % of control
NC(=O)C(N)C(F)c1ccccc1 (stereo not drawn) : 116 % of control
CCN(CC)Cc1c(OC)ccc2[nH]c3c4ccc(Cl)cc4ncc3c12 : 105 % of control
Cc1cc2c(=O)cc(-c3ccccc3)oc2c(C(=O)O)c1C : 93 % of control
Clc1ccc(CC(Cn2ccnc2)c2ccccc2Cl)cc1 (stereo not drawn) : 96 % of control
Cn1c(=S)[nH]n(CCOc2ccccc2)c1=S : 99 % of control
O=C(O)CC(Sc1ccc(Cl)cc1)C(=O)Nc1ccccc1 (stereo not drawn) : 102 % of control

Next:
Which T/C is reported with B6C3F1 mice, ip Sarcoma M5076, median survival T/C for this entry: `O=S1(=O)C(c2ccccc2)=C(O)c2cc3ccccc3nc21` ?
108 % of control

====

tested on: B6C3F1 mice, ip Sarcoma M5076, median survival T/C; experiment: NCI In Vivo Anticancer Drug Screen. Data for tumor model Sarcoma M5076 (intraperitoneal) in B6C3F1 mice; settings: endpoint: median survival time; dose: 200.0 mg/kg/injection; schedule: Q04DX004 (ip); vehicle: saline; higher = longer survival
Inconclusive results and toxic doses are left out.
reportedMetric: T/C

# annotated cases, reported T/C shown
CC#CCOCC(O)CCl (stereo unspecified) : 103 % of control
CCN(CC)CCCC(C)Nc1c2ccc(Cl)cc2nc2ccc(OC)cc12 (stereo unspecified) : 91 % of control
CCN(CC)CCn1c2c(c3ccc(OC)cc31)CCN1CC3CC(OC(=O)c4cc(OC)c(OC)c(OC)c4)C(OC)C(C(=O)OC)C3CC21 (stereo unspecified) : 86 % of control
N[C@@H](C[C@H]1CCC(=O)[C@@H]2O[C@H]12)C(=O)O : 117 % of control
C=CCc1cn(C2CC(O)C(CO)O2)c(=O)[nH]c1=O (stereo unspecified) : 93 % of control

Consider now this further molecule.
Record request: T/C value, item CC(C)c1ccc(C2NC(=S)NC(=O)C2C#N)cc1 (stereo unspecified)
88 % of control

====

Could you please report measured T/C for the items listed next?
system: B6C3F1 mice, ip Sarcoma M5076, median survival T/C; test: NCI In Vivo Anticancer Drug Screen. Data for tumor model Sarcoma M5076 (intraperitoneal) in B6C3F1 mice; settings: endpoint: median survival time; dose: 50.0 mg/kg/injection; schedule: Q04DX004 (ip); vehicle: saline with Tween-80; higher = longer survival
Inconclusive results and toxic doses are left out.

Dear reader, for each entry below, please note its T/C.
1. COc1cccc2c1C(=O)C1=C(C2=O)c2c(O)cc(CO)cc2C(O)C1O (stereo unspecified)
2. Cc1cccc(-n2c(CC#N)n[nH]c2=S)c1
3. ClC1(Cl)Cc2ccccc21

1. 101 % of control
2. 115 % of control
3. 103 % of control

// batch mode: one T/C value per listed entry
1. CCOC(=O)CNCc1cc(=O)[nH]c2cc(Cl)ccc12
2. COc1cc2c(c3c1/c(=N/N(C)C)c1ccccc1n3C)C=CC(C)(C)O2

["99 % of control", "105 % of control"]

Field: T/C. Fill in for each record below.
1. CCCCNP1(NCCCC)=NP(NCCCC)(NCCCC)=NP(NCCCC)(NCCCC)=NP(NCCCC)(NCCCC)=N1
2. O=c1[nH]c2cc3c(cc2n2cccc12)oc1ccccc13
3. O=C(Nc1ccccc1CCl)Nc1ccccc1CCl

1: 97 % of control; 2: 90 % of control; 3: 107 % of control

Lab note: each compound below needs its T/C filled in.
1. CCCC1CCC(=C2C(=O)CCC2=O)O1 (stereo unspecified)
2. COc1ncc(Br)cc1C(=O)NCCc1ccc(S(=O)(=O)NC(=O)NC2CCCCC2)cc1
3. COc1ccc2c(c1)n([O-])c1ccccc1[n+]2=O

["95 % of control", "100 % of control", "117 % of control"]
